- test-system: ABL1 (64-515) (Homo sapiens (Human), UniProt P00519)
- Sequence (P00519 64-515): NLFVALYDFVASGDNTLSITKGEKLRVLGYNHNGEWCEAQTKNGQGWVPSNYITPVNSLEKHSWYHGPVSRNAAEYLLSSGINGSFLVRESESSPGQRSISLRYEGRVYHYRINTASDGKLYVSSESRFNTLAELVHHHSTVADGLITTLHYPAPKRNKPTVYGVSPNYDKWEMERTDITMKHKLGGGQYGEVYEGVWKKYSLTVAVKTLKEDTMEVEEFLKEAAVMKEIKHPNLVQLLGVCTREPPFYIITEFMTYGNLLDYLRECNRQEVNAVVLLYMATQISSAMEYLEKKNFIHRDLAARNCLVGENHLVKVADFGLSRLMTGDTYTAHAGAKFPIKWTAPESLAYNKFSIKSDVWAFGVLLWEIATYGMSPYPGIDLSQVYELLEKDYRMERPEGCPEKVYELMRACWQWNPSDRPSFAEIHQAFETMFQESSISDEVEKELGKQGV
- protocol-description: Caliper ABL1 (64-515) microfluidic mobility shift kinase assay
- experimental-conditions: read-out: Caliper ABL1 (64-515) IC50
# IC50 annotations
Give just the numeric value; nM need not be written.

Example entries and their recorded answers appear below.
CN(CCO)c1ccc(C(=O)Nc2ccc(OC(F)(F)F)cc2)cc1-c1cncs1 [Example 20] ... 5
O=C(Nc1ccc(OC(F)(F)F)cc1)c1cnc(N2CCOC(CO)C2)c(-c2ccn[nH]2)c1 (stereo not shown) [Example 36] ... 8.1
O=C(Nc1ccc(OC(F)(F)Cl)cc1)c1cnc(NCC(O)CCO)c(-c2ccn[nH]2)c1 (stereo not shown) [Example 97] ... 5.7

Enquiry: Entry O=C(Nc1ccc(OC(F)(F)F)cc1)c1cnc(N2C[C@H](O)[C@@H](F)C2)c(-c2ccn[nH]2)c1 (relative stereo) [Example 74] : reported IC50 = ?
Return: 3.7

Enquiry: Entry O=C(Nc1ccc(OC(F)(F)Cl)cc1)c1cnc(NCCC(O)C(=O)O)c(-c2ccn[nH]2)c1 (stereo not shown) [Example 96] : reported IC50 = ?
Return: 5.3

Enquiry: Entry Cn1c(C#N)ccc1-c1cc(C(=O)Nc2ccc(OC(F)(F)Cl)cc2)cnc1N1CC[C@@H](O)C1 [Example 47] : reported IC50 = ?
Return: 1.6

Enquiry: Entry Cc1ncc(-c2cc(C(=O)Nc3ccc(OC(F)(F)F)cc3)cnc2N2CC[C@H](CO)C2)s1 [Example 16] : reported IC50 = ?
Return: 1.1

* * *

- Test system: Ba/F3-BCR-ABL1-T315I cells
- protocol-description: Proliferation assay Ba/F3-BCR-ABL1-T315I cells
- Assay type: cell-based, murine
- experimental-conditions: Mus musculus, 48 h, read-out: Ba/F3-BCR-ABL1-T315I IC50 [μM]
quantity-name: IC50 (µM)
Give just the numeric value; µM need not be written.

Enquiry: Entry C[C@@]1(O)CCN(c2ncc(C(=O)Nc3ccc(OC(F)(F)F)cc3)cc2-c2ccn[nH]2)C1 [Example 14] : reported IC50 = ?
Return: 0.134

* * *

- Test system: Ba/F3-BCR-ABL1-WT cells
- protocol-description: Proliferation assay Ba/F3-BCR-ABL1-WT cells
- Assay type: cell-based, murine
- experimental-conditions: Mus musculus; 48 hours, Britelite luminescence; read-out: Ba/F3-BCR-ABL1-WT IC50
# pIC50 annotations
// pIC50 here means minus log10 of the molar concentration (mol/L)

N#Cc1ccc(-c2cc(C(=O)Nc3ccc(OC(F)(F)Cl)cc3)cnc2N2CC[C@@H](O)C2)[nH]1 ... 9.22
Cc1cnc(-c2cc(C(=O)Nc3ccc(OC(F)(F)F)cc3)cnc2N2CC[C@@H](O)C2)[nH]1 ... 8.35
O=C(Nc1ccc(OC(F)(F)F)cc1)c1cnc(N2CC[C@@H](O)C2)c(-c2cncs2)c1 ... 8.60
O=C(Nc1ccc(OC(F)(F)F)cc1)c1cnc(N2CC[C@@H](O)C2)c(-c2ccoc2)c1 ... 8.23
O=C(Nc1ccc(OC(F)(F)Cl)cc1)c1cnc(N2CC[C@@H](O)C2)c(-c2ccc[nH]2)c1 ... 9.10
O=C(Nc1ccc(OC(F)(F)Cl)cc1)c1cnc(N2C[C@H](O)[C@@H](F)C2)c(-c2ccn[nH]2)c1 (relative stereo) ... 8.92

Enquiry: Entry CN(C)C(=O)c1ccc(-c2cc(C(=O)Nc3ccc(OC(F)(F)Cl)cc3)cnc2N2CC[C@@H](O)C2)[nH]1 : reported pIC50 = ?
Return: 9.40

Enquiry: Entry O=C(Nc1ccc(OC(F)(F)Cl)cc1)c1cnc(N2CCCC3(CCN3)C2)c(-c2ccn[nH]2)c1 (centres unmarked) : reported pIC50 = ?
Return: 7.31

Enquiry: Entry CC1(O)CN(c2ncc(C(=O)Nc3ccc(OC(F)(F)F)cc3)cc2-c2ncc[nH]2)C1 : reported pIC50 = ?
Return: 7.61

Enquiry: Entry N#Cc1ccc(-c2cc(C(=O)Nc3ccc(OC(F)(F)F)cc3)cnc2N2CC[C@@H](O)C2)[nH]1 : reported pIC50 = ?
Return: 8.96

Enquiry: Entry O=C(Nc1ccc(OC(F)(F)F)cc1)c1cnc(N2CC[C@@H](O)C2)c(-c2ccc[nH]2)c1 : reported pIC50 = ?
Return: 8.35

# credit: patent US9340537B2
